# protocol: A qHTS for Small Molecule Inhibitors of Shiga Toxin; further: 0% is about no effect
# cond: Vero cells, Shiga toxin protein synthesis inhibition reporter; at 38.7 µM, hits give high values
Hit rate of the full screen: of about 290,000 compounds, about 27,000 (9.3%) were called active. What follows is part of a selection rich in actives, with near analogues and random picks from the rest.
List of inhibition values.

{"molecule": "CCOc1ccc(S(=O)(=O)NCCCn2ccnc2)cc1NC(C)=O", "inhibition (%)": -15.3}
{"molecule": "Cc1nnc(SCc2nc3ccccc3nc2C)s1", "inhibition (%)": -8.09}
{"molecule": "Cc1cc(NC(=O)CSc2nnnn2-c2ccc(F)cc2)no1", "inhibition (%)": 24.2}
{"molecule": "CC(=O)c1cc2c(cc1NC(=O)Cn1nc(-c3ccc(F)cc3)ccc1=O)OCO2", "inhibition (%)": 20.6}
{"molecule": "COc1ccc(CN2CN(C3CCCC3)CSC2=S)cc1", "inhibition (%)": 17.5}
{"molecule": "O=C(O)CC(CC(=O)N1CCOCC1)c1ccccc1 (stereo unspecified)", "inhibition (%)": -6.69}
{"molecule": "O=C1CCN(Cc2ccc([N+](=O)[O-])cc2)CCN1[C@H](CO)Cc1ccccc1", "inhibition (%)": -0.762}
{"molecule": "Cc1ccc(-c2noc(CSc3nnc(-c4ccncc4)n3-c3ccc(F)cc3)n2)cc1", "inhibition (%)": -6.83}
{"molecule": "O=[N+]([O-])c1cc(C(F)(F)F)ccc1NN=C1CCCC1", "inhibition (%)": 9.47}
{"molecule": "C=CCOc1cccc(C2NC(=O)c3ccccc3O2)c1 (stereo unspecified)", "inhibition (%)": 5.66}
{"molecule": "COc1nc(-c2ccc(Cl)cc2)ccc1-c1noc(-c2cccs2)n1", "inhibition (%)": -10.5}
{"molecule": "COc1ccc(Br)cc1C(=O)Nc1cccc(C)c1C", "inhibition (%)": 26.5}
{"molecule": "O=C(CCCC(=O)N1CCN(c2cccc(Cl)c2)CC1)c1ccccc1", "inhibition (%)": 25.1}
{"molecule": "Cc1ccc(C(=O)CSc2ccccc2C(=O)O)cc1", "inhibition (%)": 39.6}
{"molecule": "Cc1ccc(-c2nc3ccccc3[nH]2)cc1NC(=O)c1sc2ccccc2c1Cl", "inhibition (%)": -6.19}
{"molecule": "O=C(c1ccc(Br)o1)N1CCN(CCOc2ccccc2)CC1", "inhibition (%)": -4.41}
{"molecule": "COc1ccc(N2CCN(S(=O)(=O)c3cc(Br)cnc3N)CC2)cc1", "inhibition (%)": -7.11}
{"molecule": "Cc1ccccc1N1CCN(C2CCCN(C(=O)c3ocnc3C)C2)CC1 (stereo unspecified)", "inhibition (%)": -9.46}
{"molecule": "Cc1ccc(C(=O)Cc2nnc(C)s2)cc1", "inhibition (%)": 58.4}
{"molecule": "CCOC(=O)N1CCN(C(=O)c2cn(C)c3ccc(S(=O)(=O)N(CC)CC)cc3c2=O)CC1", "inhibition (%)": 2.57}
{"molecule": "O=C(CSc1nc2ccccc2s1)Nc1ccc(C(=O)O)cc1", "inhibition (%)": -1.35}
{"molecule": "Cc1ccc(-c2nc(-c3ccncc3)no2)c(C)c1", "inhibition (%)": 80.3}
{"molecule": "COCc1c(C(=O)N/N=C/C2CC=CCC2)nnn1-c1nonc1N (stereo unspecified)", "inhibition (%)": -2.4}
{"molecule": "CC(=O)Nc1ccccc1OC(C)C(=O)N1CCC(C)CC1 (stereo unspecified)", "inhibition (%)": -7.84}
{"molecule": "O=S(=O)(NC1CC1)c1ccc(F)c(F)c1", "inhibition (%)": 20.3}
{"molecule": "O=C(Nn1cnc2ccccc2c1=O)c1ccc(F)cc1Cl", "inhibition (%)": 71.8}
{"molecule": "O=C(c1cccc([N+](=O)[O-])c1)N1CCN(C(=O)c2ccco2)CC1", "inhibition (%)": -3.08}
{"molecule": "O=C(Nn1cnc2ccccc2c1=O)c1ccccc1", "inhibition (%)": 58.6}
{"molecule": "O=C(N/N=C\\C1CC=CCC1)c1ccc(Br)o1 (stereo unspecified)", "inhibition (%)": 67.4}
{"molecule": "O=C(c1ccc2c(c1)OCO2)N1CCN(C(=O)c2ccco2)CC1", "inhibition (%)": 17}
{"molecule": "COc1cc(OC)c(NC(=O)C2CCCN2C(=O)OCc2ccccc2)cc1Cl (stereo unspecified)", "inhibition (%)": -6.5}
{"molecule": "COc1ccc(C(C)=O)cc1COc1ccc(Cl)c(C)c1", "inhibition (%)": 7.61}
{"molecule": "C=CCn1c(=O)c(C(=O)NCc2ccc3c(c2)OCO3)c(O)c2ccccc21", "inhibition (%)": -10.5}
{"molecule": "COc1ccc(-c2nc3c(c(SCC(=O)Nc4ccc(C(=O)O)cc4)n2)Cc2ccccc2O3)cc1", "inhibition (%)": 18.2}
{"molecule": "Cc1ccc(Nc2nc(N)nc(CSc3nnc(C)s3)n2)cc1", "inhibition (%)": 97.7}
{"molecule": "COc1ccc(CCn2c(=N)c(C(=O)NCC3CCCO3)cc3c(=O)n4cccc(C)c4nc32)cc1OC (stereo unspecified)", "inhibition (%)": 2.54}
{"molecule": "O=C1Nc2cc(C(=O)N3CCN(c4ccc(F)cc4)CC3)ccc2NC1CSCc1cccc(F)c1 (stereo unspecified)", "inhibition (%)": -13.8}
{"molecule": "c1ccc(-c2noc(-c3cccs3)n2)nc1", "inhibition (%)": 15}
{"molecule": "COc1ccccc1C(=O)NC(CCSC)C(=O)NNC(=O)c1csc(N2CCOCC2)n1 (stereo unspecified)", "inhibition (%)": -15.3}
{"molecule": "COc1ccc(NS(=O)(=O)c2cccc3nsnc23)cc1Cl", "inhibition (%)": -3.74}
{"molecule": "CCOC(=O)N1CCN(Cc2nc(N)nc(Nc3ccc(C)cc3)n2)CC1", "inhibition (%)": 16.1}
{"molecule": "NC(=O)c1c(Nc2nc3c(F)cccc3s2)sc2c1CCCC2", "inhibition (%)": 13.4}
{"molecule": "O=C(COc1ccc(-c2ccccc2)cc1)NN=C1CCCC1", "inhibition (%)": -0.705}
{"molecule": "Cc1ccc(C(=O)Cn2cccn2)cc1", "inhibition (%)": 5.48}
{"molecule": "O=C(c1ccc(C(F)(F)F)cc1)C1CCCN(C(=O)c2csnn2)C1 (stereo unspecified)", "inhibition (%)": -1.35}
{"molecule": "COc1ccc(Cl)cc1NC(=O)CCS(=O)(=O)c1ccc(Br)cc1", "inhibition (%)": -3.47}
